- procedure.summary: qHTS Assay for Lipid Storage Modulators in Drosophila S3 Cells
- condition.summary: BODIPY lipid droplet fluorescence, 18-24 h, cells fed with added oleic acid; series mostly up to 46.1 µM
- Source text: NIH Molecular Libraries Probe Production Centers Network [MLPCN] NIH Chemical Genomics Center [NCGC] […] Triacsin C (Sigma-Aldrich T-4540), an inhibitor of long-chain fatty acyl CoA synthetase that blocks synthesis of triglycerides, was used as a positive control for lipid under-storage. […] Fluorescence was detected by excitation of the fluorophores with a 488-nm laser on an Acumen Explorer (TTP Lab Tech). […] Cells were detected using channel 3 (575-640 nm) with 5-um width and 100-um depth filters. […]
About 2,100 (0.66%) of roughly 320,000 compounds were called active. Not shown: some 53% with an inconclusive outcome. Calls come from the whole dose curve; as a rule, active = well fitted inhibition curve with a large enough effect in the signal ratio, with a control signal flat (not every such curve was filed as active); inconclusive = small, poorly fitted or top-dose-only effect, or effect the other way, or a change in a side signal; inactive = flat fitted curve, though single readings scatter; the % refers to the signal ratio. Only a selection was taken, and actives are over-represented in it overall.
Your response should consist of one outcome taken from yes = active, no = inactive

# count of solved cases: 5
compound: CCOc1ccc(N(CC(=O)NCCSCc2ccc(Cl)cc2)S(C)(=O)=O)cc1
group: yes
--
compound: O=c1c(Cl)c(Cl)cnn1Cc1ccccc1Cl
group: yes
--
compound: O=C(NC1CCCC1)C(c1ccccc1)N(Cc1cccnc1)C(=O)Cc1cccs1 (stereo not drawn)
group: no
--
compound: O=C(O)CCC(=O)Nc1ccc(/C=C/C(=O)C2CC2)cc1
group: no
--
compound: CC(Sc1ccccc1)C(=O)N1CCN(S(=O)(=O)c2cccc(Br)c2)CC1 (stereo not drawn)
group: no

Task: What was the test verdict on COc1cc(C(=O)NC2CCCc3c2cnn3-c2ccccc2F)cc(OC)c1OC (stereo not drawn) ?
Output: yes

Task: Assay outcome for `Cc1ccc(SCc2nc3ccccc3n2CC(=O)Nc2ccc(Cl)cc2)cc1` : what was it?
Output: yes

Task: Hi, sorry to bother you, what did the test record for `O=c1[nH]cnc2c1cnn2Cc1ccccc1Cl` ?
Output: no

Task: What call does the record list for `CCCNC(=O)Cn1c(=O)/c(=C\c2ccc(-c3cccc([N+](=O)[O-])c3)o2)s/c1=C\C(=O)C(C)(C)C` ?
Output: no

Task: What call does the record list for `O=C(NC(=S)Nc1ccc(S(=O)(=O)Nc2nccs2)cc1)c1ccc(Br)o1` ?
Output: no

Task: Outcome? COc1ccc(C(=O)NC2CCCc3c2cnn3-c2cc(F)cc(F)c2)c(OC)c1OC (stereo not drawn)
Output: no

Task: Could you please tell me the result logged for `CN(C)c1nc(NCc2ccccc2)nc(N/N=C/c2ccc(Cl)cc2Cl)n1` in this assay?
Output: no

Task: Recorded test call requested for `O=C1C(Cl)=C(N2CCOCC2)C(=O)N1c1ccccc1F`
Output: no

Task: Please let me know the test result on file for `COc1ccc(CCNC(=O)c2ccc(=O)[nH]c2)cc1OC` .
Output: no

---

Each record here notes measured cell number change.
- procedure.summary: qHTS Assay for Lipid Storage Modulators in Drosophila S3 Cells;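 for cell number change: cells counted by Cell Tracker Red CMTPX staining in the red channel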
- condition.summary: BODIPY lipid droplet fluorescence, 18-24 h, cells fed with added oleic acid; measured here: cell count max response
Out of some 320,000 compounds screened, about 2,100 (0.66%) were called active. About 53% were inconclusive and are not listed. The sample as a whole holds a higher share of actives than the screen did.
Kindly answer with a numeric value in %, unit omitted.

Known cell number change results, listed for orientation:
molecule: CC(=Nc1ccccc1O)c1sc2ccccc2c1O
units.symbol: %
cell number change: -13.3
--
molecule: Cc1nn(S(=O)(=O)N2CCOCC2)c(C)c1Br
units.symbol: %
cell number change: -1.55
--
molecule: CCC(C)(C)NC(=O)C1CC(=O)N(CCc2ccc(F)cc2)C1 (centres undefined)
units.symbol: %
cell number change: -4.05

Continue with the molecule presented below.
Task: Find the recorded cell number change belonging to CC1(C)CC2(C)Nc3ccccc3N2C(=S)N1 (centres undefined) and report it.
Output: -13.1

---

Listed here are compounds together with their documented cell number change.
- procedure.summary: qHTS Assay for Lipid Storage Modulators in Drosophila S3 Cells;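 for cell number change: cells counted by Cell Tracker Red CMTPX staining in the red channel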
- condition.summary: BODIPY lipid droplet fluorescence, 18-24 h, cells fed with added oleic acid; measured here: cell count max response
Out of some 320,000 compounds screened, about 2,100 (0.66%) were called active. Roughly 53% stayed inconclusive and do not appear here. For the sample, actives were picked, then their nearest neighbours and some compounds at random.
Just the number please, in %, no unit attached.

compound: O=C(COc1ccccc1[N+](=O)[O-])Nc1cc(C(=O)O)cc(C(=O)O)c1
cell number change / %: -6.55
//
compound: CNC(=O)NC(=O)COc1ccc2oc3c(c2c1)CCCC3
cell number change / %: 18.9
//
compound: CCS(=O)(=O)N1Cc2ccccc2CC1C(=O)NC(C)C12CC3CC(CC(C3)C1)C2 (centres undefined)
cell number change / %: -29.2
//
compound: CC(=O)N1CCc2cc(S(=O)(=O)CCC(=O)N3CCN(c4ccccn4)CC3)ccc21
cell number change / %: 3.02
//
compound: O=C(O)CC(Cc1ccc(Br)cc1)C(=O)O (centres undefined)
cell number change / %: -24.7
//
compound: CN(C)c1ccc(NC(=O)C[n+]2ccccc2)cc1
cell number change / %: 22.5
//
compound: COC(=O)c1ccccc1Oc1ccc(NC(=O)CCCl)cc1
cell number change / %: -3.28
//
compound: CCN(Cc1ccccc1)C(=O)CS(=O)(=O)c1ccccc1
cell number change / %: 0.704

Turning to the following compound.
Task: // query cell number change value for entry CC(=O)Nc1ccc(S(=O)(=O)NC(C)c2nc(-c3ccccc3)no2)cc1 (centres undefined)
Output: 16.2

---

- procedure.summary: qHTS Assay for Lipid Storage Modulators in Drosophila S3 Cells
- condition.summary: BODIPY lipid droplet fluorescence, 18-24 h, cells fed with added oleic acid; series mostly up to 46.1 µM
Out of some 320,000 compounds screened, about 2,100 (0.66%) were called active. Roughly 53% stayed inconclusive and do not appear here. The entries come from a sample that favours actives as a whole.
parameter.measured: outcome

test.smiles: O=C(NCCCn1ccnc1)c1cc2cc([N+](=O)[O-])ccc2oc1=O
observed: inactive
--
test.smiles: COc1ccc(-c2csc3nc(C(C)(C)C)oc(=O)c23)cc1OC
observed: inactive
--
test.smiles: Cc1c(CCOC(=O)CC23CC4CC(CC(C)(C4)C2)C3)sc[n+]1CC(=O)c1ccccc1
observed: inactive

---

- procedure.summary: qHTS Assay for Lipid Storage Modulators in Drosophila S3 Cells;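 for cell number change: cells counted by Cell Tracker Red CMTPX staining in the red channel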
- condition.summary: BODIPY lipid droplet fluorescence, 18-24 h, cells fed with added oleic acid; measured here: cell count max response
Hit rate of the full screen: of about 320,000 compounds, about 2,100 (0.66%) were called active. About 53% were inconclusive and are not listed. Many of the other results were omitted from the sample, so actives are more common in it than they were.
parameter.measured: cell number change (%)
Quick reminder: number only, in %, skip the unit.

Task: Would you kindly share the measured cell number change for COc1ccccc1C(=O)C1CCCN(Cc2cccc3nccnc23)C1 (stereo not drawn) ?
Output: 15

Task: Recorded cell number change of `O=C(OCC#CCSc1nnc(-c2ccccc2)o1)c1cccs1` , please.
Output: -0.992

Task: For `COc1cccc(NC(=O)COC(=O)CCn2c(C)csc2=O)c1` , what is its reported cell number change?
Output: -50

Task: Look up cell number change for this molecule: `COc1ccc(C(=O)OCc2cc(C)ccc2C)cc1S(=O)(=O)N1CCCC1`
Output: -10.2

Task: Could you share which cell number change value was measured for `C=CCOc1ccc(-c2nc3c(c(=O)[nH]c(=O)n3Cc3ccccc3)n2CCCOC)cc1` ?
Output: 4.84

Task: State the recorded cell number change for this entry: `CN(C(=O)c1ccc(S(=O)(=O)N2CCCC2)cc1)C1CCCCC1`
Output: -9.06

Task: Requested read-out: cell number change. Entry: `Cc1nc2c(n1O)CCC/C2=N\O`
Output: -1.11

Task: Look up cell number change for this molecule: `O=S(=O)(O)c1cc(OS(=O)(=O)c2ccccc2)cc2ccccc12`
Output: 6.99

Task: Any idea what cell number change was measured for `CSc1nsc(SCC(=O)Nc2ccc(Cl)c(C(=O)O)c2)n1` ?
Output: 6.94

Task: Query: cell number change; subject: CC1CC(c2ccccc2)=Nc2ccccc2N1 (stereo not drawn)
Output: 13.7

Task: Sample COc1ccc(C(=O)N2CCCC(C(N)=O)C2)cc1S(=O)(=O)N1CCOCC1 (stereo not drawn) — what was its cell number change?
Output: 10.1

Task: Looking for the measured cell number change of `COc1ccc(CCNC(=O)CCCOc2cc(=O)n(C)c3ccccc23)cc1OC` , can you help?
Output: 11.7

Task: Returns the measured cell number change for the input molecule. Input: `CN1CCC(N(C)C(=O)c2ccc(Cl)c(S(=O)(=O)N3CCCCC3)c2)CC1`
Output: -2.26

Task: I am curious: what cell number change value has been reported for `CCCCn1c(=O)[nH]c(=O)c2c1nc(-c1ccc(-c3ccc(F)cc3)o1)n2C` ?
Output: 10.6

Task: What measured cell number change goes with `CSc1nsc(SCC(=O)Nc2ccc(OC(C)=O)cc2)n1` ?
Output: -8.58

Task: # query: cell number change of entry COc1cccc(C(=O)OC2CCCN(C)C2)c1 (stereo not drawn)
Output: -20.8

Task: Value lookup for cell number change; key = `COc1cc(CNC2CCCCCCC2)c(Br)cc1OCCO`
Output: -14

Task: Fill in the blank: the reported cell number change of `COc1ccc(OC)c(CCNC(=O)Cn2cccc2C(=O)c2ccccc2C)c1` is ____.
Output: 3.16
